Test system: THRa homodimer (NR concentration 90 nM)
Assay: PBM binding z-score (relative to random genomic background probes); higher = stronger binding; sequences stand for … in GC…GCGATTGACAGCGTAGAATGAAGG
True means recorded PBM binding z-score is 0.5 or above; False means it is below 0.5.

## Task Item GCTATTAGTTGAAAGGGCAACCCAATGATTCTCG with PBM binding z-score of 0.5 or above?
## Result False

## Task Item CGTCAAAGTTCAACTAAGGTAACGCAAAGCACGC with PBM binding z-score of 0.5 or above?
## Result True

## Task Item CCTACTGGGCCATTCAGAGGTGATTGATCATATG with PBM binding z-score of 0.5 or above?
## Result False

## Task Item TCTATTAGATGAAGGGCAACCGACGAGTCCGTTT with PBM binding z-score of 0.5 or above?
## Result False

## Task Item TTTCCAAGGTGAGCTGAGGTCGTTGATCCAACTC with PBM binding z-score of 0.5 or above?
## Result True

## Task Item ATCTCTAGGTAAAAGTTCAGTCAATCCCGAGGAT with PBM binding z-score of 0.5 or above?
## Result True

## Task Item CATACGGGGTCAGCTAGGCCAGAGTAGGGACGGC with PBM binding z-score of 0.5 or above?
## Result True

## Task Item GCTGCTAGGTCAGTTTGGTCAGCTAACGGGTACG with PBM binding z-score of 0.5 or above?
## Result False

## Task Item CGTCCCAGGTCATAGGAGGTCAGTGAAGACAGAT with PBM binding z-score of 0.5 or above?
## Result True

## Task Item CATCGGAGGACAGAAGGTCAGAGCTGTCCGCTTT with PBM binding z-score of 0.5 or above?
## Result False

## Task Item TCGAGTAGGTTATCAATGGGGCATTCAGCTTTCT with PBM binding z-score of 0.5 or above?
## Result False

## Task Item TCATATAGGTAAATGCTAGGTAAAAGTCCGATCT with PBM binding z-score of 0.5 or above?
## Result False

## Task Item TCATATAGGTAAGTGCTAGGTGAAAGTCCGATCT with PBM binding z-score of 0.5 or above?
## Result False

## Task Item GCGACTGGGGCAAAGCAGGTTACCACAAGGTTGG with PBM binding z-score of 0.5 or above?
## Result False

## Task Item ATATGTTGGTTATCGGGTCATTCAGTTTGCGCAT with PBM binding z-score of 0.5 or above?
## Result True

## Task Item CAAACTAGGTCAAGATGTCAAAGTCCGCTTCCCG with PBM binding z-score of 0.5 or above?
## Result True

## Task Item CTCAAAAGGTCGTGCTCAGGTGAGTATACCAAAC with PBM binding z-score of 0.5 or above?
## Result True

## Task Item TCTAGTAGATCAATAGAGGTTAAGAAAGTGCGCT with PBM binding z-score of 0.5 or above?
## Result False

## Task Item ATCGCTAGGTAAAAGTTCAGTGAATCCCGAGGAT with PBM binding z-score of 0.5 or above?
## Result False

## Task Item ACTATTAGTTGAGTTAGGGCAACCGATACGACGC with PBM binding z-score of 0.5 or above?
## Result False
